tgt: Paired box protein Pax-6 (Homo sapiens) (UniProt P26367)
Sequence (P26367 whole entry, looked up): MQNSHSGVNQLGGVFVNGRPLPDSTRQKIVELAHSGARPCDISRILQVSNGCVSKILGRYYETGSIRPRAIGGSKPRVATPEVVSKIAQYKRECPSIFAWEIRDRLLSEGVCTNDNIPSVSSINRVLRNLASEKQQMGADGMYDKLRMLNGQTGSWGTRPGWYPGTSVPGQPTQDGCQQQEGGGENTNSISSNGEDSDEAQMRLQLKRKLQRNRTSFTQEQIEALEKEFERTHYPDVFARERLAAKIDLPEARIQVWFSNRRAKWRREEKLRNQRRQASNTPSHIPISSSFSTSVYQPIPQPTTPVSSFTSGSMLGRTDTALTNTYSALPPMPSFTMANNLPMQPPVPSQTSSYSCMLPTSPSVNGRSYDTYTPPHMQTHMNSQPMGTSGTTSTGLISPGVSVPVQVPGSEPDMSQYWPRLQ
method-description: ATG_Pax6_CIS: Attagene CIS-FACTORIAL HepG2 Assay for human Paired Box 6 (PAX6) (AID 2282956)
test-parameters: HepG2 CIS-FACTORIAL PAX6 reporter transcription, RNA readout; actives raise or lower the signal
The source made the active and inactive calls. The calls were made as follows: active = hit-call score of the fitted dose curve at least 0.9, where 1 is the maximum; inactive = score below 0.9.
metric: outcome

NC(N)=O : inactive
CC(C)CC(C)O (centres undefined) : inactive
O=C(NO)C1(NS(=O)(=O)c2ccc(Oc3ccc(F)cc3)cc2)CCOCC1 : inactive
Cc1ncc([C@@H](CCCCCCc2ccc3c(n2)NCCC3)CC(=O)O)cn1 : inactive
